A collection of compounds and their measured IPOHE damage score (10=total damage to plant; 0=no damage to plant)
- Test system: Ipomea hederaceae
- experimentSummary: Example B2 herbicidal action, post-emergence, pots in glasshouse, damage score 0-10
- Format: in vivo
- assayConditions: application post-emergence, rate 1000 g/ha, evaluated after 13 days
Answer with a number only.

Sample records with IPOHE damage score (10=total damage to plant; 0=no damage to plant):
> print(dat)
                                   compound  reading
1  CCN1c2nccnc2C(O)=C(c2c(F)ccc(Cl)c2Cl)S1(=O)=O [Compound D4]       10
2  CCN1c2nccnc2C(OC(=O)C(C)C)=C(c2ccc(Cl)c(Cl)c2)S1(=O)=O [Compound C26]        0
3  CC(C)C(=O)OC1=C(c2c(C(F)(F)F)ccc(Cl)c2Cl)S(=O)(=O)N(CC(F)F)c2nccnc21 [Compound C134]        3
4  CCSC(=O)OC1=C(c2cc(Cl)ccc2C(F)(F)F)S(=O)(=O)N(CC(F)F)c2nccnc21 [Compound C112]        9

**Query** Value lookup for IPOHE damage score (10=total damage to plant; 0=no damage to plant); key = CC(C)C(=O)OC1=C(c2cc(C(F)(F)F)ccc2Cl)S(=O)(=O)N(C)c2nccnc21 [Compound C90]
**Result** 9

**Query** Value lookup for IPOHE damage score (10=total damage to plant; 0=no damage to plant); key = CCN1c2nccnc2C(OC(=O)C(C)(C)C)=C(c2cc(Cl)ccc2C(F)(F)F)S1(=O)=O [Compound C108]
**Result** 3

----------
- System: Ipomea hederaceae
- experimentSummary: Example B2 herbicidal action, post-emergence, pots in glasshouse, damage score 0-10
- Format: in vivo
- assayConditions: application post-emergence, rate 1000 g/ha, evaluated after 13 days
One threshold, 7, splits the recorded IPOHE damage score (10=total damage to plant; 0=no damage to plant) values: lower ones are Condition met, equal or higher ones are Condition not met.

> print(dat)
                                   compound              class
1  CC(C)(C)C(=O)OC1=C(c2ccc(-c3ccc(Cl)cc3F)cc2Cl)S(=O)(=O)N(CC(F)F)c2nccnc21 [Compound C142]      Condition met
2  O=S1(=O)C(c2ccccc2C(F)(F)F)=C(O)c2nccnc2N1CC(F)F [Compound D31]  Condition not met
3  CCN1c2nccnc2C(O)=C(c2ccc(Cl)c(Cl)c2)S1(=O)=O [Compound D8]      Condition met
4  C#CCN1c2nccnc2C(OC(=O)C(C)(C)C)=C(c2c(Cl)ccc(Cl)c2C(F)(F)F)S1(=O)=O [Compound C86]      Condition met

**Query** Consider the compound CC(C)(C)C(=O)OC1=C(c2c(Cl)ccc(Cl)c2C(F)(F)F)S(=O)(=O)N(CC(F)F)c2nccnc21 [Compound C52] . Is its IPOHE damage score (10=total damage to plant; 0=no damage to plant) strictly less than 7?
**Result** Condition not met

**Query** Consider the compound CCN1c2nccnc2C(OC(=O)C(C)(C)C)=C(c2cc(C(F)(F)F)ccc2Cl)S1(=O)=O [Compound C33] . Is its IPOHE damage score (10=total damage to plant; 0=no damage to plant) strictly less than 7?
**Result** Condition met

----------
- System: Solanum nigrum
- experimentSummary: Example B2 herbicidal action, post-emergence, pots in glasshouse, damage score 0-10
- Type: in vivo
- assayConditions: application post-emergence, rate 1000 g/ha, evaluated after 13 days
- Procedure: Seeds of a variety of test species were sown in standard soil in pots. […] After 13 days, the test was evaluated (10=total damage to plant; 0=no damage to plant).
A collection of compounds and their measured SOLNI damage score (10=total damage to plant; 0=no damage to plant)

Sample records with SOLNI damage score (10=total damage to plant; 0=no damage to plant):
> print(dat)
                                 smilescode          system  reading
1  CCSC(=O)OC1=C(c2cccc(Cl)c2Cl)S(=O)(=O)N(CC)c2nccnc21  Solanum nigrum        8
2  O=C(OC1=C(c2c(Cl)ccc(Cl)c2Cl)S(=O)(=O)N(CC(F)F)c2nccnc21)Sc1ccccc1  Solanum nigrum        9
3  CCSC(=O)OC1=C(c2cc(Cl)ccc2C(F)(F)F)S(=O)(=O)N(CC(F)F)c2nccnc21  Solanum nigrum       10

**Query** Value lookup for SOLNI damage score (10=total damage to plant; 0=no damage to plant); key = `CCN1c2nccnc2C(O)=C(c2cccc(C(F)(F)F)c2)S1(=O)=O`
**Result** 1

----------
A collection of compounds and their measured IPOHE damage score (10=total damage to plant; 0=no damage to plant)
- Test system: Ipomea hederaceae
- experimentSummary: Example B2 herbicidal action, post-emergence, pots in glasshouse, damage score 0-10
- Format: in vivo
- assayConditions: application post-emergence, rate 1000 g/ha, evaluated after 13 days
Answer with a number only.

**Query** Value lookup for IPOHE damage score (10=total damage to plant; 0=no damage to plant); key = `CCSC(=O)OC1=C(c2cccc(Cl)c2Cl)S(=O)(=O)N(CC(F)F)c2nccnc21`
**Result** 8

**Query** Value lookup for IPOHE damage score (10=total damage to plant; 0=no damage to plant); key = `CCN1c2nccnc2C(OC(=O)C(C)(C)C)=C(c2cc(C(F)(F)F)ccc2C(F)(F)F)S1(=O)=O`
**Result** 5

**Query** Value lookup for IPOHE damage score (10=total damage to plant; 0=no damage to plant); key = `COc1ccc(F)c(C2=C(OC(=O)C(C)C)c3nccnc3N(CC(F)F)S2(=O)=O)c1`
**Result** 2

**Query** Value lookup for IPOHE damage score (10=total damage to plant; 0=no damage to plant); key = `CC(C)C(=O)OC1=C(c2ccc(Cl)cc2Cl)S(=O)(=O)N(CC(F)(F)F)c2nccnc21`
**Result** 10

----------
- Tested on: Solanum nigrum
- experimentSummary: Example B2 herbicidal action, post-emergence, pots in glasshouse, damage score 0-10
- Assay type: in vivo
- assayConditions: application post-emergence, rate 1000 g/ha, evaluated after 13 days
measure: SOLNI damage score (10=total damage to plant; 0=no damage to plant)
Answer with a number only.

Sample records with SOLNI damage score (10=total damage to plant; 0=no damage to plant):
> print(dat)
                                 smilescode          system  reading
1  O=S1(=O)C(c2cccc(Cl)c2Cl)=C(O)c2nccnc2N1CC(F)F  Solanum nigrum       10
2  Cc1ccc(F)c(C2=C(O)c3nccnc3N(CC(F)F)S2(=O)=O)c1Cl  Solanum nigrum        9
3  O=S1(=O)C(c2cccc(C(F)(F)F)c2Cl)=C(O)c2nccnc2N1CC(F)F  Solanum nigrum        9
4  CCN1c2nccnc2C(OC(=O)C(C)(C)C)=C(c2c(F)ccc(OC)c2Cl)S1(=O)=O  Solanum nigrum        9
5  CC#CCN1c2nccnc2C(OC(=O)C(C)(C)C)=C(c2c(Cl)ccc(Cl)c2C(F)(F)F)S1(=O)=O  Solanum nigrum        7

Then this compound:
**Query** Missing value: SOLNI damage score (10=total damage to plant; 0=no damage to plant), Solanum nigrum, entry `O=S1(=O)C(c2cc(C(F)(F)F)ccc2Cl)=C(O)c2nccnc2N1CC(F)F` . Fill in?
**Result** 10

----------
- System: Ipomea hederaceae
- experimentSummary: Example B2 herbicidal action, post-emergence, pots in glasshouse, damage score 0-10
- Assay type: in vivo
- assayConditions: application post-emergence, rate 1000 g/ha, evaluated after 13 days
measure: IPOHE damage score (10=total damage to plant; 0=no damage to plant)
Answer with a number only.

Sample records with IPOHE damage score (10=total damage to plant; 0=no damage to plant):
> print(dat)
                                 smilescode  reading
1  O=S1(=O)C(c2c(C(F)(F)F)ccc(Cl)c2Cl)=C(O)c2nccnc2N1CC(F)F        7
2  CN1c2nccnc2C(O)=C(c2c(Cl)ccc(Cl)c2Cl)S1(=O)=O        8
3  O=S1(=O)C(c2c(Cl)cccc2C(F)(F)F)=C(O)c2nccnc2N1CC(F)F        9
4  CSC(=O)OC1=C(c2ccc(C(F)(F)F)cc2C(F)(F)F)S(=O)(=O)N(CC(F)F)c2nccnc21        9

**Query** Value lookup for IPOHE damage score (10=total damage to plant; 0=no damage to plant); key = `CC(C)C(=O)OC1=C(c2cccc(C(F)(F)F)c2Cl)S(=O)(=O)N(CC(F)F)c2nccnc21`
**Result** 7

----------
A collection of molecules and their measured SOLNI damage score (10=total damage to plant; 0=no damage to plant)
- Test system: Solanum nigrum
- experimentSummary: Example B2 herbicidal action, post-emergence, pots in glasshouse, damage score 0-10
- Assay type: in vivo
- assayConditions: application post-emergence, rate 1000 g/ha, evaluated after 13 days
Answer with a number only.

Sample records with SOLNI damage score (10=total damage to plant; 0=no damage to plant):
> print(dat)
                                   molecule  reading
1  CC(C)(C)C(=O)OC1=C(c2ccccc2OC(F)(F)F)S(=O)(=O)N(CC(F)F)c2nccnc21 [Compound C21]       10
2  CC(C)C(=O)OC1=C(c2cc(I)ccc2Cl)S(=O)(=O)N(CC(F)F)c2nccnc21 [Compound C54]        8
3  CC(C)C(=O)OC1=C(c2ccc(Cl)cc2Cl)S(=O)(=O)N(CC(F)(F)F)c2nccnc21 [Compound C57]       10

**Query** Value lookup for SOLNI damage score (10=total damage to plant; 0=no damage to plant); key = O=S1(=O)C(c2c(F)ccc(Br)c2Cl)=C(O)c2nccnc2N1CC(F)F [Compound D14]
**Result** 9

**Query** Value lookup for SOLNI damage score (10=total damage to plant; 0=no damage to plant); key = CC(C)C(=O)OC1=C(c2ccccc2I)S(=O)(=O)N(CC(F)F)c2nccnc21 [Compound C117]
**Result** 10

**Query** Value lookup for SOLNI damage score (10=total damage to plant; 0=no damage to plant); key = CC(C)C(=O)OC1=C(c2ccc(Cl)cc2Cl)S(=O)(=O)N(CCF)c2nccnc21 [Compound C58]
**Result** 9

**Query** Value lookup for SOLNI damage score (10=total damage to plant; 0=no damage to plant); key = CCSC(=O)OC1=C(c2c(Cl)ccc(Cl)c2Cl)S(=O)(=O)N(CC)c2nccnc21 [Compound C71]
**Result** 9
